The reported numbers originate from patent US10065941B2.

For each of the molecules below, state its log10 IC50.
# study_system: human P2X3 receptor (Homo sapiens (Human), UniProt P56373)
# Sequence (P56373 whole entry): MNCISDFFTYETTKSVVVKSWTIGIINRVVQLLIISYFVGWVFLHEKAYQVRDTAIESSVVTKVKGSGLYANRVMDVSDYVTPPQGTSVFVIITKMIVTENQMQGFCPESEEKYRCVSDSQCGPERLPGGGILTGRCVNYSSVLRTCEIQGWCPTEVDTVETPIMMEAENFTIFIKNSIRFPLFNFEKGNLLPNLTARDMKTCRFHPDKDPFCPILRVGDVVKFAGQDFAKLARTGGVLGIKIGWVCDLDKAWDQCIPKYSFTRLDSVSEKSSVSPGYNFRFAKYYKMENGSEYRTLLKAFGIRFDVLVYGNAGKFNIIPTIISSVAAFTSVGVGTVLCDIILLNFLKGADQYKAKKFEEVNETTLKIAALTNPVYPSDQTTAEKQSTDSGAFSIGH
# method_description: Evaluation of human P2X3 receptor inhibitory activity (Test Example 1)
# condition_details: C6BU-1 cell transfected with human P2X3 receptor gene, FLIPR 384
# Description: […]
Reminder: these figures are log10 of reported IC50, in nM before transformation.

Q) What log10 IC50 value was documented for this molecule, COC(=O)CCn1c(=O)[nH]/c(=N\c2ccc(Oc3ccccn3)c(Cl)c2)n(Cc2ccc(Cl)cc2)c1=O [Compound R-300] ?
A) 0.90

Q) What log10 IC50 value was documented for this molecule, COC(=O)[C@H](C)[C@H](C)n1c(=O)[nH]/c(=N\c2ccc(Oc3cc(C)ccn3)cc2)n(Cc2ccc(Cl)cc2)c1=O [Compound I-107] ?
A) 1.49

Q) What log10 IC50 value was documented for this molecule, CO[C@@H](Cn1c(=O)[nH]/c(=N\c2ccc(Oc3ccc(F)cn3)cc2)n(Cc2ccc(Cl)cc2)c1=O)C(=O)O [Compound I-124] ?
A) 0.70

Q) What log10 IC50 value was documented for this molecule, COc1cc(Oc2ccc(/N=c3\[nH]c(=O)n(C[C@H](C)C(=O)O)c(=O)n3Cc3ccc(Cl)cc3)cc2)ccn1 [Compound R-032] ?
A) 0.60

Q) What log10 IC50 value was documented for this molecule, COC(=O)[C@@H](C)Cn1c(=O)[nH]/c(=N\c2ccc(N3CCCCC3)c(C)c2)n(Cc2ccc(Cl)cc2)c1=O [Compound R-138] ?
A) 1.89

Q) What log10 IC50 value was documented for this molecule, COC(=O)[C@H](C)[C@H](C)n1c(=O)[nH]/c(=N\c2ccc(Oc3cnccn3)c(C)c2)n(Cc2ccc(Cl)cc2)c1=O [Compound R-158] ?
A) 1.08

* * *

For each of the compounds below, state its pIC50.
# study_system: human P2X3 receptor (Homo sapiens (Human), UniProt P56373)
# method_description: Evaluation of human P2X3 receptor inhibitory activity (Test Example 1)
# condition_details: C6BU-1 cell transfected with human P2X3 receptor gene, FLIPR 384
The value called pIC50 is obtained by taking minus log10 of the concentration in mol/L.

Q) What pIC50 value was documented for this compound, COC(=O)C(C)(C)Cn1c(=O)[nH]/c(=N\c2ccc(Oc3ccnc(C)n3)cc2)n(Cc2ccc(Cl)cc2)c1=O [Compound R-043] ?
A) 8.30

Q) What pIC50 value was documented for this compound, COC(=O)[C@@H](C)Cn1c(=O)[nH]/c(=N\c2ccc(Oc3ncccc3F)cc2)n(Cc2ccc(F)cc2F)c1=O [Compound I-024] ?
A) 7.47

Q) What pIC50 value was documented for this compound, C[C@@H](Cn1c(=O)[nH]/c(=N\c2ccc(Oc3nc4ccccc4s3)cc2)n(Cc2ccc(Cl)cc2)c1=O)C(=O)O [Compound R-192] ?
A) 8.40

Q) What pIC50 value was documented for this compound, O=C(O)c1cccc(-c2ccc(Oc3ccc(/N=c4\[nH]c(=O)[nH]c(=O)n4Cc4ccc(Cl)cc4)cc3)nc2)c1 [Compound R-003] ?
A) 8.40

Q) What pIC50 value was documented for this compound, Cc1ccc(Cn2c(=O)n([C@@H](C)[C@@H](C)C(=O)O)c(=O)[nH]/c2=N\c2ccc(Oc3ccc(Cl)cn3)cc2)cc1 [Compound I-123] ?
A) 8.30

Q) What pIC50 value was documented for this compound, CC(C)(Cn1c(=O)[nH]/c(=N\c2ccc(Oc3cc(Cl)ccn3)cc2)n(Cc2ccc(Cl)cc2)c1=O)C(=O)O [Compound I-086] ?
A) 7.48

Q) What pIC50 value was documented for this compound, C[C@@H](Cn1c(=O)[nH]/c(=N\c2ccc(Oc3ncccn3)cc2)n(Cc2ccc(Cl)cc2)c1=O)C(=O)O [Compound R-078] ?
A) 8.00

Q) What pIC50 value was documented for this compound, COC(=O)C(C)(C)Cn1c(=O)[nH]/c(=N\c2ccc(Oc3cccc(Cl)n3)cc2)n(Cc2ccc(C)cc2)c1=O [Compound I-116] ?
A) 8.15

Q) What pIC50 value was documented for this compound, CC(C)(Cn1c(=O)[nH]/c(=N\c2ccc(Oc3cccc(Cl)n3)cc2)n(Cc2ccc(Cl)cc2)c1=O)C(=O)O [Compound I-015] ?
A) 8.05

Q) What pIC50 value was documented for this compound, COC(=O)c1ccc(NC(=O)c2cccc(Oc3ccc(/N=c4\[nH]c(=O)n(C)c(=O)n4C[C@H]4CC[C@H](C)CC4)cc3)n2)cc1 [Compound R-004] ?
A) 6.91

Q) What pIC50 value was documented for this compound, COC(=O)[C@@H](C)Cn1c(=O)[nH]/c(=N\c2ccc(Oc3ccccn3)cc2)n(Cc2ccc(Cl)cc2)c1=O [Compound I-126] ?
A) 8.30

Q) What pIC50 value was documented for this compound, CCc1oc2ccc(/N=c3\[nH]c(=O)[nH]c(=O)n3Cc3ccc(Cl)cc3)cc2c1C [Compound R-173] ?
A) 6.42

Q) What pIC50 value was documented for this compound, O=c1[nH]/c(=N\c2ccc(Oc3ccc(F)cn3)cc2)n(Cc2ccc(Cl)cc2)c(=O)n1[C@H]1C[C@@H](C(=O)O)C1 [Compound I-020] ?
A) 8.05
